These data points were gathered from PubChem BioAssay (NCI).

# method-notes: NCI Yeast Anticancer Drug Screen. Data for the bub3 strain (AID 167)
# test-conditions: S. cerevisiae bub3 mutant strain, at 50.0 µM
About 79,000 compounds went through this panel and 15% of them were active in at least one assay; those are over-represented in the sample as a whole. Activity calls are given as the source filed them. Cut-off read from the data, not from the text of the source: active = growth inhibition above about 70%; inactive = the rest.
In this exercise, the only acceptable responses are Y for active, N for inactive

[
  {
    "molecule": "CCC(Br)C(=O)O (stereo not drawn)",
    "qualitative-label": "N"
  }
]

Identify the outcome logged in this assay for the molecule shown: COC(=O)C1=C(N2CCCC2)C2c3ccccc3SC12C(=O)OC (stereo not drawn)
N

One more molecule: COc1ccc2c3c([nH]c2c1)C(C)N(C)CC3 (stereo not drawn)
N

====

# method-notes: NCI Yeast Anticancer Drug Screen. Data for the mec2-1 strain (AID 157)
# test-conditions: S. cerevisiae mec2-1 strain, at 50.0 µM, active compounds read high
Compounds without any hit were thinned out: in the full panel of roughly 79,000, 15% have a hit.
Below is a list of entries, each paired with its recorded growth inhibition value.
Please give a number only; it is taken to be in %.

[
  {
    "compound": "CCNP(=S)(OCC)OCC",
    "growth inhibition, %": 3.15
  }
]

Given the entry COc1cccc(OC)c1CCN , report its measured growth inhibition.
-5.3

// same read-out, input: CCC[CH2][Sn]([Br])([CH2]CCC)[CH2]CCC
97.8

Try the compound NP(=S)(Oc1ccc(Cl)cc1)Oc1ccc(Cl)cc1
65.1

Next: COc1ccc([Se]c2ccc(OC)cc2)cc1
-15.5

Subsequent entry: CCOC(=O)c1ccc(N=Cc2ccc(N(CCCl)CCCl)cc2C)cc1
16.4

What about CCCC1NCCOC1(O)c1ccccc1 (configuration not stated) ?
-8.35

====

# method-notes: NCI Yeast Anticancer Drug Screen. Data for the cln2 rad14 strain (AID 165);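 note: 0% = growth equal to vehicle treated cultures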
# test-conditions: S. cerevisiae cln2 rad14 strain, at 50.0 µM
About 79,000 compounds went through this panel and 15% of them were active in at least one assay; those are over-represented in the sample as a whole. The source made the active and inactive calls. No stated cut-off is given here; in the data, active means growth inhibition above about 70%; inactive means the rest.
Would you mind answering with one of these outcomes? active, inactive

Example results:
[
  {
    "compound": "N#CC1CCCCC1",
    "qualitative-label": "inactive"
  },
  {
    "compound": "c1ccc(CN2C3CCCC2CC(c2ccccc2)C3)cc1 (stereo unspecified)",
    "qualitative-label": "active"
  },
  {
    "compound": "FC(F)(F)c1ccc(Cl)c(NC2=NCCS2)c1",
    "qualitative-label": "inactive"
  }
]

Dear all, I need the recorded test outcome for O.O=C(O)C(=O)O.[NH2-].[Zn] , thank you.
inactive

Next up: COc1cc(CC[N+](C)(C)C)cc(OC)c1OC
inactive

// same read-out, input: CC1CC2CCC1(CO)CN2 (stereo unspecified)
inactive

====

# method-notes: NCI Yeast Anticancer Drug Screen. Data for the mec2-1 strain (AID 157)
# test-conditions: S. cerevisiae mec2-1 strain, at 50.0 µM, active compounds read high
# Experimental: Growth inhibition of yeast strains with defined genetic alterations is measured as a screen for potential anti-cancer activity. Selected strains with alterations in DNA damage repair or cell cycle control were exposed to compounds and growth inhibition was measured relative to vehicle treated controls. The strain used in this assay is mec2-1
About 79,000 compounds went through this panel and 15% of them were active in at least one assay; those are over-represented in the sample as a whole.
quantity-kind: growth inhibition (%)
Quick reminder: number only, in %, skip the unit.

Sample records with growth inhibition:
[
  {
    "compound": "O=C(N=[C-]c1ccc[oH+]1)c1cccnc1.O=C(N=[C-]c1ccc[oH+]1)c1cccnc1.[Ni+2]",
    "measured-number": -34.5
  },
  {
    "compound": "ClCCN1CCOCC1",
    "measured-number": 98.8
  },
  {
    "compound": "COc1ccc(C(c2c(O)c3ccccc3oc2=O)c2c(O)c3ccccc3oc2=O)cc1",
    "measured-number": -0.35
  },
  {
    "compound": "CC(C)C(NC(=O)CCl)C(=O)O (stereo unspecified)",
    "measured-number": -0.2
  },
  {
    "compound": "CC(=O)[CH-]C(C)=O.CC(=O)[CH-]C(C)=O.CC(=O)[CH-]C(C)=O.[Ga+3]",
    "measured-number": 13.9
  },
  {
    "compound": "CN(C)c1ccc(/C=C/c2cc3scc(-c4ccccc4)[n+]3c3ccccc23)cc1",
    "measured-number": 99.5
  },
  {
    "compound": "CC1(C)[C@@H]2CC[C@@]1(C)CN(CCC[N+](C)(C)C)C2",
    "measured-number": -11.8
  },
  {
    "compound": "C=Cc1cc(OC)c2c(c1)c(=O)oc1c2cc(OC)c2c(O)ccc(C3OC(C(C)O)C(O)C3O)c21 (stereo unspecified)",
    "measured-number": 91.7
  },
  {
    "compound": "O=C(N/N=C/c1cc(Br)cc(Br)c1[O-])c1ccccc1O.O=C(N/N=C/c1cc(Br)cc(Br)c1[O-])c1ccccc1O.[Fe+2]",
    "measured-number": 21.7
  },
  {
    "compound": "Cc1cccc(OCC2=NCCN2)c1C",
    "measured-number": -4.4
  }
]

What value of growth inhibition has been recorded for this entry: CCNC(=S)S
-8.4

Subsequent entry: CC(C)CC(=O)[O-].N.N.N.N.N.[Co+3].[O-][Cl+3]([O-])([O-])[O-]
23.4

Please do the same for BrCCCCCCBr as well.
5.8

Okay, and c1ccc2c(c1)ccc1[s+]cccc12 ?
23.2

Field entry: C(#C[PH+](c1ccccc1)c1ccccc1)c1ccccc1.C(#C[PH+](c1ccccc1)c1ccccc1)c1ccccc1.C(#C[PH+](c1ccccc1)c1ccccc1)c1ccccc1.[C-]#[O+].[C-]#[O+].[C-]#[O+].[Cr]
87

Follow-up entry: COc1cc(/C=C/[N+](=O)[O-])c(OC)cc1Br
83.3

What would you report for O=[As]c1cccc2ccccc12 (stereo unspecified) ?
99.6

Same question, COc1cc(/C=C(\C)[N+](=O)[O-])cc(Br)c1O this time
90.8

====

# method-notes: NCI Yeast Anticancer Drug Screen. Data for the sgs1 mgt1 strain (AID 161);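 note: 0% = growth of cultures given vehicle only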
# test-conditions: S. cerevisiae sgs1 mgt1 strain, at 50.0 µM (retest, dose inferred, filed as 5.0), active compounds read high
# Protocol: Growth inhibition of yeast strains with defined genetic alterations is measured as a screen for potential anti-cancer activity. Selected strains with alterations in DNA damage repair or cell cycle control were exposed to compounds and growth inhibition was measured relative to vehicle treated controls. The strain used in this assay is sgs1 mgt1
The panel holds about 79,000 compounds, 15% with a hit somewhere; the sample as a whole holds those more often.
Property: growth inhibition; scope: individual molecules
Give the quantity in %, number only.

Example entries and their recorded answers appear below.
[
  {
    "molecule": "CCCCCCCC(=O)[O][Hg][c]1ccccc1",
    "scale-unit": "%",
    "growth inhibition": 100
  },
  {
    "molecule": "CCC[CH2][Sn]1([CH2]CCC)[O]C(=O)c2cccc(OC)c2[O]1",
    "scale-unit": "%",
    "growth inhibition": 98
  },
  {
    "molecule": "CCCCCCCCCCCCCCCC[N+](C)(C)CCOS(C)(=O)=O",
    "scale-unit": "%",
    "growth inhibition": 99
  }
]

Next molecule, growth inhibition to be filled in.
For C1=CC2CCC[N-]C2N1.C1=CC2CCC[N-]C2N1.[I][Pt+2][I] (stereo not given) , what is its reported growth inhibition?
99

====

# method-notes: NCI Yeast Anticancer Drug Screen. Data for the sgs1 mgt1 strain (AID 161);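 note: 0% = growth of cultures given vehicle only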
# test-conditions: S. cerevisiae sgs1 mgt1 strain, at 50.0 µM (retest, dose inferred, filed as 5.0), active compounds read high
# Description: Growth inhibition of yeast strains with defined genetic alterations is measured as a screen for potential anti-cancer activity. Selected strains with alterations in DNA damage repair or cell cycle control were exposed to compounds and growth inhibition was measured relative to vehicle treated controls. The strain used in this assay is sgs1 mgt1
This is part of a sample that, as a whole, favours compounds with a hit. Of some 79,000 tested, about 15% had one in any assay.
quantity-kind: growth inhibition (%)
# number only, unit % dropped from output

[
  {
    "compound": "CC(=O)O[C@H]1C(=O)O[C@@H]2C[C@H]3C(C)=CC(=O)[C@@H](O)[C@]3(C)[C@H]3[C@@]4(O)OC[C@]32[C@@H]1[C@@H](C)[C@H]4O",
    "growth inhibition (%)": 82
  },
  {
    "compound": "O=[N+]([O-])c1cc(Cl)c(Cl)cc1[N+](=O)[O-]",
    "growth inhibition (%)": 100
  },
  {
    "compound": "O=C([O-])C(F)(F)C(F)(F)F.[C-]#[O+].[C-]#[O+].[C-]#[O+].[C-]#[O+].[C-]#[O+].[Re]",
    "growth inhibition (%)": 12
  }
]

Please report the recorded growth inhibition for C1=C(/C=C2\CCCc3c(-c4ccccc4)cc(-c4ccccc4)[o+]c32)CCC/C1=C\C1=C2OC(c3ccccc3)=CC(c3ccccc3)=C2CCC1 .
-8

Please do the same for CCOC(=O)NP(=O)(NNc1ccccc1)NNc1ccccc1 as well.
98

Please do the same for COC1=C(Cl)C(=O)c2ccccc2C1=O as well.
99

Ok, now CCOC(=O)c1[nH]cnc1/N=N/N(C)N
87

// same read-out, input: COc1ccccc1/C=C/[N+](=O)[O-]
99

Another compound to check: COC(=O)C1=C(C(=O)OC)C2(OC(C)=O)c3ccccc3-c3ccccc3C12 (stereo unspecified)
98

Do the same for CCC[CH2][Sn]1([CH2]CCC)[O]CCN2CCN(CC[O]1)CC2 please
9

Can you handle C1CN1[PH+](N1CC1)N1CC1.C1CN1[PH+](N1CC1)N1CC1.[I][Pt][I] next?
30

Follow-up entry: [C-]#[O+].[C-]#[O+].[C-]#[O+].[C-]#[O+].[Mo].c1cnc2c(c1)ccc1cccnc12
-2

Also check Nc1cc2[nH]cnc2c([Se])n1
19

Let us now turn to O=[N+]([O-])/C=C\c1ccccc1
99

Same again, this time with CCN(CC)C(=S)[S-].CCN(CC)C(=S)[S-].O=C(O)CC([S-])C(=O)O.[Fe+3] (stereo unspecified)
99

And for O=[N+]([O-])c1ccc(SP(=S)(c2ccccc2)c2ccccc2)c([N+](=O)[O-])c1 ?
98

Next compound up: CCOc1c(Br)cc(N=Cc2ccc(N(CCCl)CCCl)c(OC)c2)cc1Br
69

Another compound: CC(=O)[O][Sn]([c]1ccccc1)([c]1ccccc1)[c]1ccccc1
98

Queued: CCC[CH2][Sn]1([CH2]CCC)[O]CC(C)[O]1 (stereo unspecified)
68

Now this one: O=[N+]([O-])c1ccc(N(CCO)CCO)c2c1no[n+]2[O-]
83

Then this compound: O=C(CF)CCl
65
